system: PRC2 complex (EZH2 Y641F/EED/SUZ12/RbAp48/AEBP2) (Homo sapiens (Human), UniProt Q15910, Y641F)
Sequence (Q15910 whole entry Y641F): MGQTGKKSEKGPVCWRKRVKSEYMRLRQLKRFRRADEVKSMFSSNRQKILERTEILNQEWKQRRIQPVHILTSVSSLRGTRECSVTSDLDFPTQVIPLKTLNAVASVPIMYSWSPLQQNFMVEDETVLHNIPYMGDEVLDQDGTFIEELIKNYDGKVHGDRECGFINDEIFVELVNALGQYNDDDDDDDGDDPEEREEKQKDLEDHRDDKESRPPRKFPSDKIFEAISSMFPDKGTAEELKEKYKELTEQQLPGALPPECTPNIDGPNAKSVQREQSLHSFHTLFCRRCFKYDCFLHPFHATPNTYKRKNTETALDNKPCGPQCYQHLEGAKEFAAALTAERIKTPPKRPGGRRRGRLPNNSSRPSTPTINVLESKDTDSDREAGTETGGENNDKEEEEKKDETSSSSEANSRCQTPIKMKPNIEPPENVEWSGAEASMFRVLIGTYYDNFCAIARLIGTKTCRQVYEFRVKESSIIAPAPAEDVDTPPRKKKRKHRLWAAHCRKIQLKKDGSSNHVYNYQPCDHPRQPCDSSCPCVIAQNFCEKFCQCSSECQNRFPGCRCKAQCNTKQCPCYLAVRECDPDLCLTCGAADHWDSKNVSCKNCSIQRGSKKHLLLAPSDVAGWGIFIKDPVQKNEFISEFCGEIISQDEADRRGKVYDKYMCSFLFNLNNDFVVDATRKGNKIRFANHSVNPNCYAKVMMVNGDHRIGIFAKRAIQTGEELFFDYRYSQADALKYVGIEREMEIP
Sequence (O75530 whole entry partner): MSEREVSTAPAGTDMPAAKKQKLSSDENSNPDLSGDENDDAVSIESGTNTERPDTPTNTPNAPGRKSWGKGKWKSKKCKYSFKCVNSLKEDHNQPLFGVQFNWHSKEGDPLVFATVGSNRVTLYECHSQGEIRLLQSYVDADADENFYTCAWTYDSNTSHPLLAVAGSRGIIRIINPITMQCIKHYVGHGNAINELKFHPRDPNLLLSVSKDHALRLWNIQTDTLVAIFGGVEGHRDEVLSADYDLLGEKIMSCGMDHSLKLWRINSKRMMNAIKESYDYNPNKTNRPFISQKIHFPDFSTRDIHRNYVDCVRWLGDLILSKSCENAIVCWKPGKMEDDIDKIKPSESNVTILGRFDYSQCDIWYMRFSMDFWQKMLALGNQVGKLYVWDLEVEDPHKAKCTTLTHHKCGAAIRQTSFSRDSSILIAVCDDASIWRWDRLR
Sequence (Q15022 whole entry partner): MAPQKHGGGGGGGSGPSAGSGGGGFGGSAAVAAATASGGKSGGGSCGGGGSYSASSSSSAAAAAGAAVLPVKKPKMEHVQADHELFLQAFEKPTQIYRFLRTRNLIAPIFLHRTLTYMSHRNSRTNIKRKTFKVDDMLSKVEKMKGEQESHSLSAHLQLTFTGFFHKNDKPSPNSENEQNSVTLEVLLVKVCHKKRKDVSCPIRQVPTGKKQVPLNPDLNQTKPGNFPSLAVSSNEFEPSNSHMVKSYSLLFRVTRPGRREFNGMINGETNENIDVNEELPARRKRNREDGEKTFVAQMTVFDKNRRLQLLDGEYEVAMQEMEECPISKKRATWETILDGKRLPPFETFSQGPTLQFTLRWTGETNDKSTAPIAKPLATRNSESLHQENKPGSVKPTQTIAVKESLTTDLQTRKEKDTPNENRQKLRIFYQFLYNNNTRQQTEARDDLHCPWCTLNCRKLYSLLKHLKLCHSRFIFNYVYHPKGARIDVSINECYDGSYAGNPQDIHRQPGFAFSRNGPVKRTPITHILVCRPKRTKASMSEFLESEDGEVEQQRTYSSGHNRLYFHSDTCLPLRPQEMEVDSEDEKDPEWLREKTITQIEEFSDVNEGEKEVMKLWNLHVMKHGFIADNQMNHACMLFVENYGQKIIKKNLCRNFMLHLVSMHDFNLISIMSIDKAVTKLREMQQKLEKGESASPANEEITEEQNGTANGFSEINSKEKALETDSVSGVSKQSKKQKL
Sequence (Q09028 whole entry partner): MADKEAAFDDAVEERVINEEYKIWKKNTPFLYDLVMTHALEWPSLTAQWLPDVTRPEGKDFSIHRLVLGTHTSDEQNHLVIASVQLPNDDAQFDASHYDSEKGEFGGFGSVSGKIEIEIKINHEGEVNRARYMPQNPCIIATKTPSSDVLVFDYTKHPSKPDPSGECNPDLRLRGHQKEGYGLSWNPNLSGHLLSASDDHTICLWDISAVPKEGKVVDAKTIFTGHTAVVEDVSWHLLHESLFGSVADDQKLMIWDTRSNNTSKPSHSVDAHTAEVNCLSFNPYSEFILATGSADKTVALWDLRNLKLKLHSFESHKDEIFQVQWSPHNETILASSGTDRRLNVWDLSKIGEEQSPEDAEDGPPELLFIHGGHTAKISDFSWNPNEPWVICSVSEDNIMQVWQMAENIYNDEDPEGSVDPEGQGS
Sequence (Q6ZN18 whole entry partner): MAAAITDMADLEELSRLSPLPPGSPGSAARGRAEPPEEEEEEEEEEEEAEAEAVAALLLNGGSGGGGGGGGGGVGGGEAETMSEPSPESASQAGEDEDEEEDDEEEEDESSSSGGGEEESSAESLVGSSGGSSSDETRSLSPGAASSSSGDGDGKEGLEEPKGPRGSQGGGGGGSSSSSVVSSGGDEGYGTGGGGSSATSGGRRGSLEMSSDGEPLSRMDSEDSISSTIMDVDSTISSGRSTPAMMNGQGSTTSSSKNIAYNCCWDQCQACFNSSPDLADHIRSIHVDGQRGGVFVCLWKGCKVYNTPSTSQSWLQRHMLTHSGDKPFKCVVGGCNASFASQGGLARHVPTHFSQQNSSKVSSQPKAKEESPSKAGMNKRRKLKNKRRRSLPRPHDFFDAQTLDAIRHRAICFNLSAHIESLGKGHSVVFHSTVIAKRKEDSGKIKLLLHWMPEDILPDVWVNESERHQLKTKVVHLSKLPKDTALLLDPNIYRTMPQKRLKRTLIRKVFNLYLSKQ
experiment: Activity of a compound to PRC2 complex (EZH2 Y641F), HTRF
condition-info: read-out: IC50 (EZH2_Y641F); EZH2 Y641F PRC2 complex, HTRF; class symbols
The compounds listed here are annotated with their IC50.

Consider the reported IC50 for these compounds:
CCN(c1c(C)c(C(=O)NCc2c(C)cc(C)[nH]c2=O)cc2cc(Br)cn12)C1CCOCC1; 100 to 1000 nM
COc1cc(-c2cc3cc(C(=O)NCc4c(C)cc(C)[nH]c4=O)c(C)c(C(C)N4CCC(N(C)C)CC4)n3c2)cc(OC)c1OC (stereo not drawn); < 100 nM
COc1cc(C)[nH]c(=O)c1CNC(=O)c1cc2c(-c3ccc(C)nn3)ccn2c(C(C)N2CCN(CC(F)(F)F)CC2)c1C (stereo not drawn); < 100 nM
COc1cc(C)[nH]c(=O)c1CNC(=O)c1cc2c(-c3ccnc(N(C)C)c3)ccn2c([C@H](C)N2CCN(CC(F)(F)F)CC2)c1C (single isomer, unassigned) [Compound 172]; 100 to 1000 nM
CCN(c1c(C)c(C(=O)NCc2c(C)cc(C)[nH]c2=O)cc2cc(-c3ccnn3C)cn12)C1CCOCC1 [Example 64]; 100 to 1000 nM

// "CCN(c1c(C)c(C(=O)NCc2c(OC)cc(C)[nH]c2=O)cc2c(-c3ccnc(N(C)C)c3)ncn12)C1CCN(CC(F)(F)F)CC1" : IC50 value = < 100 nM

---

system: PRC2 complex (EZH2 Y641F/EED/SUZ12/RbAp48/AEBP2) (Homo sapiens (Human), UniProt Q15910, Y641F)
experiment: Activity of a compound to PRC2 complex (EZH2 Y641F), HTRF
measured-metric: IC50

CCN(c1c(C)c(C(=O)NCc2c(C)cc(C)[nH]c2=O)cc2cccn12)C1CCOCC1; < 100 nM
Cc1cc(C)c(CNC(=O)c2cc3c(-c4ccccc4)ccn3c(C(C)N3CCC(N(C)C)CC3)c2C)c(=O)[nH]1 (stereo not drawn); < 100 nM
Cc1cc(C)c(CNC(=O)c2cc3cc(-c4cn(C)cn4)cn3c(C(C)N3CCOCC3)c2C)c(=O)[nH]1 (stereo not drawn); 100 to 1000 nM
CCN(c1c(C)c(C(=O)NCc2c(C)cc(C)[nH]c2=O)cc2cc(-c3cn(C)cn3)cn12)C1CCOCC1; < 100 nM
Cc1cc(C)c(CNC(=O)c2cc3cc(-c4cc5c(s4)CCNC5)cn3c(C(C)N3CCOCC3)c2C)c(=O)[nH]1 (stereo not drawn); < 100 nM

// COc1cc(-c2cc3cc(C(=O)NCc4c(C)cc(C)[nH]c4=O)c(C)c(C(C)N4CCOCC4)n3c2)cc(OC)c1OC (stereo not drawn) : IC50 value = < 100 nM

// Cc1[nH]c(=O)c(CNC(=O)c2cc3c(-c4ccc(N)nc4)ccn3c(C(C)N3CCN(CC(F)(F)F)CC3)c2C)c2c1CN(CC(C)C)CC2 (stereo not drawn) : IC50 value = 100 to 1000 nM

---

system: PRC2 complex (EZH2 Y641F/EED/SUZ12/RbAp48/AEBP2) (Homo sapiens (Human), UniProt Q15910, Y641F)
experiment: Activity of a compound to PRC2 complex (EZH2 Y641F), HTRF
condition-info: read-out: IC50 (EZH2_Y641F); EZH2 Y641F PRC2 complex, HTRF; class symbols
pIC50: −log10 of the molar value.
The compounds listed here are annotated with their pIC50.

Consider the reported pIC50 for these compounds:
Cc1cc(C)c(CNC(=O)c2cc3cc(-c4cnn(C5CCNCC5)c4)cn3c(C(C)N3CCOCC3)c2C)c(=O)[nH]1 (stereo not shown); > 7.00
Cc1cc(C)c(CNC(=O)c2cc3cc(Br)cn3c(C(C)Oc3ccc(N(C)C)cc3)c2C)c(=O)[nH]1 (stereo not shown); > 7.00
Cc1cc(C)c(CNC(=O)c2cc3cc(Br)cn3c(C(C)N3CCN(C(=O)CO)CC3)c2C)c(=O)[nH]1 (stereo not shown) [Example 102]; 5.00 to 6.00

Could you now consider this next compound?
// Cc1cc(C)c(CNC(=O)c2cc3cc(-c4cccnc4)cn3c(C(C)N3CCOCC3)c2C)c(=O)[nH]1 (stereo not shown) : pIC50 value = > 7.00

---

The compounds listed here are annotated with their pIC50.
system: PRC2 complex (EZH2 Y641F/EED/SUZ12/RbAp48/AEBP2) (Homo sapiens (Human), UniProt Q15910, Y641F)
experiment: Activity of a compound to PRC2 complex (EZH2 Y641F), HTRF
condition-info: read-out: IC50 (EZH2_Y641F); EZH2 Y641F PRC2 complex, HTRF; class symbols
pIC50: −log10 of the molar value.

Consider the reported pIC50 for these compounds:
Cc1cc(C)c(CNC(=O)c2cc3cc(Br)cn3c(C(C)N3CCC(N4CCCC4)CC3)c2C)c(=O)[nH]1 (stereo not shown) [Example 145]; 6.00 to 7.00
Cc1cc(C)c(CNC(=O)c2cc3c(-c4cccc(N5CCOCC5)c4)ccn3c(C(C)N3CCOCC3)c2C)c(=O)[nH]1 (stereo not shown); > 7.00
Cc1cc(C)c(CNC(=O)c2cc3c(-c4ccccc4)ccn3c(C(C)N3CCOCC3)c2C)c(=O)[nH]1 (stereo not shown) [Example 82]; > 7.00
COc1cc(C)[nH]c(=O)c1CNC(=O)c1cc2c(-c3cnc(C)nc3)ccn2c([C@H](C)N2CCN(CC(F)(F)F)CC2)c1C (single isomer, unassigned) [Compound 198]; > 7.00
COc1cc(C)[nH]c(=O)c1CNC(=O)c1cc2c(-c3ncnn3C)ccn2c(C(C)N2CCN(CC(F)(F)F)CC2)c1C (stereo not shown); > 7.00
Cc1cc(C)c(CNC(=O)c2cc3cccn3c(C(C)OCc3ccccc3)c2C)c(=O)[nH]1 (stereo not shown); 6.00 to 7.00
COc1cc(C)[nH]c(=O)c1CNC(=O)c1cc2c(-c3ccnc4c3CCN4)ccn2c(C(C)N2CCN(CC(F)(F)F)CC2)c1C (stereo not shown); > 7.00
COc1cccc(-c2cc3cc(C(=O)NCc4c(C)cc(C)[nH]c4=O)c(C)c(C(C)N4CCOCC4)n3c2)c1 (stereo not shown) [Example 96]; > 7.00
COc1cc(C)[nH]c(=O)c1CNC(=O)c1cc2cc(-c3nccn3C)cn2c(C(C)N2CCC(N(C)C)CC2)c1C (stereo not shown) [Example 108]; > 7.00
Cc1cc(C)c(CNC(=O)c2cc3cc(C4=CCOCC4)cn3c(C(C)N3CCOCC3)c2C)c(=O)[nH]1 (stereo not shown); 6.00 to 7.00

// CNc1cc(-c2ccn3c([C@H](C)N4CCN(CC(F)(F)F)CC4)c(C)c(C(=O)NCc4c(OC)cc(C)[nH]c4=O)cc23)ccn1 (single isomer, unassigned) [Compound 182] : pIC50 value = 6.00 to 7.00

// Cc1cc(C)c(CNC(=O)c2cc3cccn3c(C(C)OCc3ccc(F)cc3)c2C)c(=O)[nH]1 (stereo not shown) : pIC50 value = 6.00 to 7.00

// COc1cc(-c2ccn3c([C@H](C)N4CCN(CC(F)(F)F)CC4)c(C)c(C(=O)NCc4c(OC)cc(C)[nH]c4=O)cc23)ccn1 (single isomer, unassigned) [Compound 195] : pIC50 value = 6.00 to 7.00

---

system: PRC2 complex (EZH2 Y641F/EED/SUZ12/RbAp48/AEBP2) (Homo sapiens (Human), UniProt Q15910, Y641F)
experiment: Activity of a compound to PRC2 complex (EZH2 Y641F), HTRF
condition-info: read-out: IC50 (EZH2_Y641F); EZH2 Y641F PRC2 complex, HTRF; class symbols
pIC50: −log10 of the molar value.
The compounds listed here are annotated with their pIC50.

Consider the reported pIC50 for these compounds:
Cc1cc(C)c(CNC(=O)c2cc3cc(Br)cn3c(C(C)N3CCC(F)(F)CC3)c2C)c(=O)[nH]1 (stereo not shown) [Example 123]; 5.00 to 6.00
Cc1cc(C)c(CNC(=O)c2cc3c(-c4ccc(N)nc4)ccn3c([C@H](C)N3CCN(CC(F)(F)F)CC3)c2C)c(=O)[nH]1 (single isomer, unassigned) [Compound 159]; > 7.00
Cc1cc(C)c(CNC(=O)c2cc3c(-c4ccccc4)ccn3c(C(C)N3CCOCC3)c2C)c(=O)[nH]1 (stereo not shown) [Example 81]; > 7.00
Cc1cc(C)c(CNC(=O)c2cc3cccn3c(C(O)c3ccc(Br)cc3)c2C)c(=O)[nH]1 (stereo not shown); 6.00 to 7.00
Cc1cc(C)c(CNC(=O)c2cc3cc(-c4cncs4)cn3c(C(C)N3CCN(CC(F)(F)F)CC3)c2C)c(=O)[nH]1 (stereo not shown) [Example 140]; 6.00 to 7.00

// Cc1cc(C)c(CNC(=O)c2cc3cc(-c4ccnn4C)cn3c(C(C)N3CCOCC3)c2C)c(=O)[nH]1 (stereo not shown) : pIC50 value = > 7.00

// COC(c1ccc(Br)cc1)c1c(C)c(C(=O)NCc2c(C)cc(C)[nH]c2=O)cc2cccn12 (stereo not shown) : pIC50 value = < 5.00
